- Tested on: HCI01 (cells of a triple-negative basal-like breast cancer xenograft);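 note: PDX cells carrying CMV promoter-driven luciferase, viability read as total photon flux per second by IVIS imaging following D-luciferin, vehicle control 0.1% DMSO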
- assay notes: cell viability (% of vehicle); higher = less cytotoxic
- experimental parameters: 10 µM; 72 h
Record form. Attribute: cell viability. Fill in for each entry.
Answers are plain numbers.

Nc1ccc2cc3ccc([NH3+])cc3nc2c1.Nc1ccc2cc3ccc([NH3+])cc3nc2c1.O=S(=O)([O-])[O-] [Proflavine Hemisulfate]	82.6
O[C@@H]1CO[C@H]2[C@@H]1OC[C@@H]2O [Isosorbide]	115
COc1cc2c(cc1O)CCC1C2CCC2(C)C(O)CCC12 (centres undefined)	141

Here is the next item to consider.
// query HCI01 / cell viability / CC(C)(C)c1ccc(C(O)CCCN2CCC(C(O)(c3ccccc3)c3ccccc3)CC2)cc1 (centres undefined) : value?
// result 34.4

// provenance: the supplement of paper PMC6992640
